Please go through the items and note down their GI50.
Tested on: DMS-273
Assay: NCI tumour cell line growth inhibition, 48 h
The source made the active and inactive calls. No stated cut-off is given here; in the data, active = GI50 up to about 1.1 µM and inactive = higher.

Please go through the list and note GI50 for each compound.
1. CN(C)c1n/c(=N/c2ccc(/N=c3\nc(N(C)C)ss3)cc2)ss1
2. C=CCc1cc(OC)c(O)c(C(=O)/C=C/c2ccc(OC)c(OC)c2)c1
3. CSc1nc(SC)c2c(C#N)n[nH]c2n1
4. CCCCc1c2c(nc3c1CCc1cc4cc5c(nc4nc1-3)-c1nc3c(c(CCCC)c1CC5)CCC/C3=C\c1ccccc1)/C(=C/c1ccccc1)CCC2
5. Clc1cc(Cl)c2ns[s+]c2c1Cl
6. C=CCC1C(=O)CC2(C)CC(=O)C(CC=C)C12C (stereo not drawn)
7. NC1CCCCC1.O=P(O)(O)C(CSc1ccccc1)P(=O)(O)O
8. O=c1[nH]c(=O)n(C2CC(O)C(CO)O2)cc1OS(=O)(=O)C(F)(F)F (stereo not drawn)

[out]
1. 28.8 µM (inactive)
2. 23.4 µM (inactive)
3. > 100 µM (inactive)
4. > 100 µM (inactive)
5. > 100 µM (inactive)
6. > 100 µM (inactive)
7. > 100 µM (inactive)
8. > 100 µM (inactive)

Give one value of GI50 per listed compound.
1. C=C1C(OC(=O)/C=C/c2ccccc2)CC(OC(C)=O)C2(C)C1CC1CC(OC(C)=O)C(C)=C(C(OC(C)=O)C2OC(C)=O)C1(C)C (stereo not drawn)
2. CCC12C=CCN(CCc3c([nH]c4ccccc34)/C=C\1)C2 (stereo not drawn)
3. CCOC(=O)C1=C(C)Nc2ccccc2S1
4. ClCCC[Si]12OCCN(CCO1)CCO2
5. O=C1C(=Cc2ccc(F)cc2)C(=O)c2ccccc21

[out]
1. 4.2 µM (inactive)
2. > 100 µM (inactive)
3. 73.8 µM (inactive)
4. > 100 µM (inactive)
5. > 100 µM (inactive)

====

Provide the recorded GI50 for the entries that follow.
System: UACC-257
Assay: NCI tumour cell line growth inhibition, 48 h
Activity calls are given as the source filed them. Rule as the data show it: active = GI50 up to about 1.1 µM and inactive = higher.

Known GI50 results, listed for orientation:
Field GI50 (entry CCCCC(CCCC)=NNC(=S)SC ) reads 24.9 µM (inactive)

Field GI50 (entry C/C(=C\COc1ccc2ccc(=O)oc2c1)C1=CC(=O)C(C)(C)O1 [GEIPARVARIN] ) reads 4.69 µM (inactive)

Let's switch to this compound now.
The value of GI50 measured for the compound Cn1c(=O)c2c(nc(N3CCOCC3)n2CCCNCC(O)c2ccc(O)c(O)c2)n(C)c1=O (stereo not drawn) turned out to be > 100 µM (inactive)

====

System: SK-MEL-5
Assay: NCI tumour cell line growth inhibition, 48 h
Activity calls are given as the source filed them. Rule as the data show it: active = GI50 up to about 1.1 µM and inactive = higher.
Entry note: the call must match one of active, inactive

Solved cases (10 shown):
[in] Outcome logged for CC1(C)CC(=O)c2c(nc3c(ccc4ccccc43)c2-c2ccc(NC(=O)CCCCC(=O)Nc3ccc(-c4c5c(nc6c4ccc4ccccc46)CC(C)(C)CC5=O)cc3)cc2)C1 in this assay:
[out] inactive

[in] Record lookup: outcome of this test for C=CCc1cc(-c2cc(CC=C)c(O)c(CN(CCCl)CCCl)c2)cc(CN(CCCl)CCCl)c1O ?
[out] inactive

[in] Tell me the recorded outcome of this test for OC12CCC3(OC4CCCCO4)c4ccccc4C3C1c1ccccc12 (stereo not given) .
[out] inactive

[in] Write down the call the test reported for this compound. Item: COP(=O)(OC)[C@@](O)(c1ccccc1)[C@@H](O)[C@H](O)c1ccccc1
[out] inactive

[in] Name the outcome recorded for Nc1nc(Nc2ccc(Cl)cc2)sc1C(=O)c1cccs1 in the assay.
[out] inactive

[in] Hello, I am checking results. What call was entered for Cc1nc2c(nc1C)-c1c(c3c(n1C)C(=O)CCC3)C(=O)C2=O ?
[out] active

[in] Outcome? CC1(C)CCc2c(ccc(C(=O)/C=C/c3ccc(O)cc3)c2O)O1
[out] inactive

[in] Just curious, what result did OC(CC(O)(C(F)(F)F)C(F)(F)F)C(O)c1ccco1 (stereo not given) get here?
[out] inactive

[in] Per the assay record, what outcome was assigned to CC1(OCc2ccccc2)C(=O)N2C1NCC2(C)C (stereo not given) ?
[out] inactive

[in] Could you check what this test reported for NC1CCCCC1.O=P(O)(O)C(CSc1ccccc1)P(=O)(O)O ?
[out] inactive

Others:
[in] Short answer needed: outcome of this test for CC1=NN(C(=O)Nc2ccccc2)C(=O)C2CCC(=O)N12 (stereo not given) ?
[out] inactive

[in] # lookup: test call for CC1C(O)Oc2cc3c(cc2C1c1ccccc1O)OCO3 (stereo not given)
[out] inactive

[in] What classification did Cc1nc2ccc(C(F)(F)F)cc2nc1NCc1ccc(Cl)c(Cl)c1 end up with in this test?
[out] inactive

[in] Query: recorded result category for CN(C)CCNC(=O)Cn1cnc2cccc([N+](=O)[O-])c2c1=O in this test
[out] inactive

[in] // return assay outcome for CC(=O)NC1C(OCc2ccccc2)OC(CO)C(O)C1OC(C)C(=O)NC(C(=O)NC(CCC(=O)NCCCC(=O)Nc1ccc2c(c1)CN1C(=O)c3ccccc3C1=N2)C(N)=O)C(C)C (stereo not given)
[out] inactive

[in] # outcome recorded in this test, key = CSC1C=C(C(C)C)CCC1(C)SC (stereo not given)
[out] inactive

[in] Test call for this compound, please: COc1cc2cc(C(=O)N3CC(CCl)c4c3cc(O)c3ccccc43)[nH]c2c(OC)c1OC (stereo not given)
[out] active

[in] In this assay, the call recorded for NC(=O)c1ccc(C(=O)Nc2ccc([As](=O)(O)O)cc2)cc1 was what?
[out] inactive

[in] Look up the recorded call for c1ccc2c(c1)nc1n2sc2nc3ccccc3n21 in this test.
[out] inactive

[in] Tell me the recorded outcome of this test for C=CCNC(=S)N/N=C1\C(=O)Nc2ccc([N+](=O)[O-])cc21 .
[out] inactive

[in] Could you check what this test reported for O=[N+]([O-])c1cc([N+](=O)[O-])c(Nn2c3ccccc3c3ccccc32)c([N+](=O)[O-])c1 ?
[out] inactive

[in] In this assay, the call recorded for Cc1nc2ccccc2c(=O)n1NC(=O)Cc1ccccc1 was what?
[out] inactive

[in] // param item: CCn1c(=O)c2c3ccc(O)cc3oc2c2ccc(O)cc21 ; yields the recorded call
[out] inactive

[in] What did this assay record as the result for CCCC1(NC(=O)C(F)(F)F)CC(OC)OC2COC(c3ccccc3)OC21 (stereo not given) ?
[out] inactive

[in] Dear all, I need the recorded test outcome for CCCNCC(O)CNc1ccc(NCC(O)CNCCC)c2c1C(=O)c1ccccc1C2=O (stereo not given) , thank you.
[out] inactive

[in] Dear all, I need the recorded test outcome for C=C1CC(C)(COc2ccc3c(C)cc(=O)oc3c2)OC1=O (stereo not given) , thank you.
[out] inactive

[in] Which result was noted for this compound in the test: C=C(Cl)/C(=C\Cl)CCC(Cl)C(C)C (stereo not given)
[out] inactive

[in] Recorded test outcome, item Cc1ccc(S(=O)(=O)N2CCN(S(=O)(=O)c3ccc(C)cc3)Cc3ccccc3C2)cc1
[out] inactive

[in] Hi team, can someone confirm the assay call for C[N+]1(c2ccccc2)C=C(c2ccccc2)SC1=S (stereo not given) ?
[out] inactive

[in] Could you check what this test reported for COC(=O)[C@@H]1[C@@H]2NC(=S)N[C@@]1(C)Oc1ccccc12 ?
[out] inactive

====

Provide the recorded GI50 for the entries that follow.
Tested on: U-251
Experiment: NCI tumour cell line growth inhibition, 48 h
Active and inactive are the calls of the source. Rule as the data show it: active = GI50 up to about 1.1 µM and inactive = higher.

Consider the following items and state reported GI50 for each.
1. CCOC(=O)COc1cccc2occc(=O)c12
2. O=Cc1[nH]c(=O)[nH]c(=O)c1CCl
3. Cn1c(=O)c2c(nc(N3CCOCC3)n2CCCNCC(O)c2ccc(O)c(O)c2)n(C)c1=O (stereo unspecified)
4. CCOC(=O)c1sc(N/N=C2\NC(=O)/C(=C/c3ccc([N+](=O)[O-])cc3)S2)nc1C
5. Cc1cc2occ(S(=O)(=O)NC(=O)Nc3ccc(Cl)cc3)c(=O)c2c(=O)o1
6. CN(C)c1ccc(C2SCC(=O)N2NS(=O)(=O)c2cccc(C(=O)O)c2)cc1 (stereo unspecified)

[out]
["> 100 µM (inactive)", "> 61 µM (inactive)", "> 100 µM (inactive)", "26.1 µM (inactive)", "> 100 µM (inactive)", "> 100 µM (inactive)"]

====

System: NCI-H460
Assay: NCI tumour cell line growth inhibition, 48 h
Active and inactive are the calls of the source. Rule as the data show it: active = GI50 up to about 1.1 µM and inactive = higher.
Answer each item with its documented GI50.

The reported value for CC1(C)CCCCCC(C)(CCCCCCCCCCCO)C1=O (stereo unspecified) in terms of GI50 is 17.1 µM (inactive)

Batch of 7 compounds: report GI50 for each.
1. COc1ccccc1NC(=O)/C(=C/c1ccccc1)C(C)=O
2. O=C(NCCCCCCNC(=O)NC1OCC(O)C(O)C1O)NC1OCC(O)C(O)C1O (stereo unspecified)
3. CCOC(=O)C1=C(C)Nc2ccccc2S1
4. CCn1c(=O)c2c3ccc(O)cc3oc2c2ccc(O)cc21
5. CC1COS(=O)N1c1ccccc1 (stereo unspecified)
6. COC(CNC(=O)CNC(=O)c1ccc(C(F)(F)F)cc1)OC
7. O=c1c(-c2ccccc2)c(SCCCN2CCCCC2)n(-c2ccccc2)c(=S)n1-c1ccccc1

[out]
37.2 µM (inactive)
> 100 µM (inactive)
> 100 µM (inactive)
34.6 µM (inactive)
> 100 µM (inactive)
> 100 µM (inactive)
16.4 µM (inactive)
